All values here come from ChEMBL document CHEMBL4616588.

This listing pairs compounds with measured EC50.
System: T47D
protocol text: Antiproliferative activity against human T47D cells assessed as cell viability incubated for 72 hrs Alamar blue assay
Type: functional, cell-based

- compound: "CNCCCC1c2ccccc2C=Cc2ccccc21 [PROTRIPTYLINE]"
  result: "> 10 µM"

Now consider the entry below.
The reported EC50 value, T47D, for CN(C)CCCN1c2ccccc2Sc2ccc(C(F)(F)F)cc21 [TRIFLUPROMAZINE] reads 8.6 µM
